- SUBJECT OF TEST: A2AR (Homo sapiens, UniProt P29274)
- Sequence (P29274 whole entry): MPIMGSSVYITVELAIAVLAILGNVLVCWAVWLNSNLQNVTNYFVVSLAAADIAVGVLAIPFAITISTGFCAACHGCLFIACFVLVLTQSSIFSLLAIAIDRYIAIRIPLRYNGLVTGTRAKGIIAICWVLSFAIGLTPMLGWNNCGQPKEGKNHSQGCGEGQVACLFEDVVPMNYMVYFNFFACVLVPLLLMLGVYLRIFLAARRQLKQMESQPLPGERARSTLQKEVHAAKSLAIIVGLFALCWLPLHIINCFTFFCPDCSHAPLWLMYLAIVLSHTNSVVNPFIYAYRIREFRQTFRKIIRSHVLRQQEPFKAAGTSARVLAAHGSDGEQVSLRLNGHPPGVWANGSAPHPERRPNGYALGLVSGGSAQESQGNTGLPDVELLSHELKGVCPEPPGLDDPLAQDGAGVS
- ASSAY OVERVIEW: A2AR cell functional cAMP assays (allosteric and antagonistic)
- ASSAY CONDITIONS: NECA titration, IgG titration (NECA 0.5 uM), IgG titration (NECA 10 uM)
READOUT: function in cAMP assays

A2A-24: A2AR variant; VH CDR1-3 SEQ ID NO 29/118/207 (antibody, V domains shown) VH: EVQLVESGGGLVKPGGSLRLSCAASGFNIGNTYMHWFRQAPGKGLEWVGVINPNYGTTRYNDSVKGRFTISRDNSKNTLYLQMNSLRAEDTAVYYCARDYGSSSFDYWGQGTLVTVSS VL: DIQMTQSPSSLSASVGDRVTITCKASQSVRNDVVWYQQKPGKAPKLLIYRGNTLRPGVPSRFSGSGSGTDFTLTISSLQPEDFATYYCQQYYGIPLTFGQGTKLEIK: improved function
A2A-27: A2AR variant; VH CDR1-3 SEQ ID NO 32/121/210 (antibody, V domains shown) VH: EVQLVESGGGLVKPGGSLRLSCAASGFTFSSYAMAWVRQAPGKGLEWVSAISGSGGSTYFADSVKGRFTISRDNSKNTLYLQMNSLRAEDTAVYYCAAARGYWRWRLWRRYDYWGQGTLVTVSS VL: DIQMTQSPSSLSASVGDRVTITCRASQSIGSYLNWYQQKPGKAPKLLIYGASNLQSGVPSRFSGSGSGTDFTLTISSLQPEDFATYYCQQGYSAPRTFGGGTKLEIK: improved function
